Data origin: patent US20110294728

# study_system: HIV-1 reverse transcriptase p66/p51 in complex with PAW peptide (HIV-1 (BH10), UniProt P03366;P03366 P03366:600-1159,P03366:600-1039)
# protocol_text: steady-state fluorescence quenching; 10 uM PAW; 50 mM Tris-HCl pH 8.0, 50 mM KCl, 10 mM MgCl2, 25 C
# run_parameters: protein: synthetic; label: 6-FAM at primer 3' end; primer/template with 5' single-stranded template overhang
reported_property: Kd (nM)
Provide only the numeric value, understood in nM.

Which value of Kd has been reported for 19/36-mer DNA/DNA primer/template (HIV-1 PBS) (dsDNA) DNA 1: TCCCTGTTCGGGCGCCACT DNA 2: TGTGGAAAATCTCATGCAGTGGCGCCCGAACAGGGA in the records? 99
